target.or.test.system: p38 (Homo sapiens, UniProt Q16539)
Sequence (Q16539 whole entry): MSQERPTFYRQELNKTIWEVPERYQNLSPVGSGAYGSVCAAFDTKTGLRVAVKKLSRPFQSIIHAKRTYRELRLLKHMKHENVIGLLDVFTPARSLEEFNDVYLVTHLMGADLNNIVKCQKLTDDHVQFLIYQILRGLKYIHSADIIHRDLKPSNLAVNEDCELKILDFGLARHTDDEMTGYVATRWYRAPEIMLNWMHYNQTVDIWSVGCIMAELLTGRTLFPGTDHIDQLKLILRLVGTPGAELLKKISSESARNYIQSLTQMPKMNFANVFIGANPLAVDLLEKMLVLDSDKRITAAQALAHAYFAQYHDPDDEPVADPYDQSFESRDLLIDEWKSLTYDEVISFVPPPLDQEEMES
reported.property: pIC50
Numbers only, as −log10 of the molar value.

Prompt: Fill in: pIC50 of `Cc1ncc(C(=O)Nc2ccc(CN3CCN(C)CC3)c(C(F)(F)F)c2)cc1C#Cc1c(N)ncc2ccc(F)cc12` is ___
Completion: 7.34

====

Give IC50 for every item shown.
Test system: MOLM-14 cells
assay.remarks: Antiproliferative activity (CellTitre-Blue, 72 h)
Type: cell-based, human
test.context: Homo sapiens, MOLM-14; 72 h incubation, triplicates; read-out: IC50 (mean ±SD, nM) MOLM-14
Answers are plain numbers, in nM.

// worked examples, IC50 included
1. Cc1ncc(C(=O)Nc2ccc(CN3CCN(C)CC3)c(C(F)(F)F)c2)cc1C#Cc1c(N)ncc2ccc(Cl)cc12 :: 2.3
2. Cc1ncc(C(=O)Nc2ccc(CN3CCN(C)CC3)c(C(F)(F)F)c2)cc1C#Cc1cnc(N)c2ncccc12 :: 0.2
3. Cc1ncc(C(=O)Nc2ccc(CN3CCN(C)CC3)c(C(F)(F)F)c2)cc1C#Cc1cncc2ncccc12 :: 0.2
4. CC(C)(C)c1cc(NC(=O)Nc2ccc(-c3cn4c(n3)sc3cc(OCCN5CCOCC5)ccc34)cc2)no1 [Quizartinib, reference compound] :: 0.5
5. Cc1ncc(C(=O)Nc2ccc(CN3CCN(C)CC3)c(C(F)(F)F)c2)cc1C#Cc1c(N)ncc2ccc(F)cc12 :: 0.5
6. CC1(COc2ccc3c(c2)ncn3-c2ccc3cccc(N4CCC(N)CC4)c3n2)COC1 [Crenolanib, reference compound] :: 4.5

--- query ---
Prompt: Would you kindly share the measured IC50 for CO[C@@H]1[C@H](N(C)C(=O)c2ccccc2)C[C@H]2O[C@]1(C)n1c3ccccc3c3c4c(c5c6ccccc6n2c5c31)C(=O)NC4 [Midostaurin, reference compound] ?
Completion: 16.1

====

Field: inhibition at 0.5 µM. Provide a value for each of the compounds that follow.
target.or.test.system: FLT3 (Homo sapiens, UniProt P36888)
Construct: purchased Invitrogen PV3182
Sequence (P36888 564-993 limits assumed): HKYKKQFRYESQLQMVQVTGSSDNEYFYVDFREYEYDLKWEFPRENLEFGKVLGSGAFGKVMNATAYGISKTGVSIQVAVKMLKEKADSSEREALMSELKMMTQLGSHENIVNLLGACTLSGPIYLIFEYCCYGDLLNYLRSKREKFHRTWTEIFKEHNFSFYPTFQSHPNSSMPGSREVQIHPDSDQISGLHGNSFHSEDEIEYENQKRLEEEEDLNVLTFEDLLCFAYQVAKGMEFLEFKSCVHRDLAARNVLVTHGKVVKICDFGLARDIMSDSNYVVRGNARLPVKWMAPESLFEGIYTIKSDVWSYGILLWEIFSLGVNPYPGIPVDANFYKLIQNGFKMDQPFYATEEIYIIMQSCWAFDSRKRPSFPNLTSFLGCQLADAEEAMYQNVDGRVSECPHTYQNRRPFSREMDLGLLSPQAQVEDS
assay.remarks: Cell-free kinase assay, single dose (Reaction Biology, ADP-Glo)
Assay type: biochemical
test.context: inhibitor 500 nM; 100 μM ATP; average of duplicate
Give bare numbers, in %.

Use these answered entries as a reference point.
1. Cc1ccc(C(=O)Nc2ccc(CN3CCN(C)CC3)c(C(F)(F)F)c2)cc1C#Cc1cnc(N)c2ccccc12 :: 100
2. Cc1ccc(C(=O)Nc2ccc(CN3CCN(C)CC3)c(C(F)(F)F)c2)cc1C#Cc1c(N)ncc2ccc(F)cc12 :: 90
3. Cc1ncc(C(=O)Nc2ccc(CN3CCN(C)CC3)c(C(F)(F)F)c2)cc1C#Cc1c(N)ncc2ccc(F)cc12 :: 97
4. Cc1ncc(C(=O)Nc2ccc(CN3CCN(C)CC3)c(C(F)(F)F)c2)cc1C#Cc1c(N)ncc2ccc(Cl)cc12 :: 98
5. Cc1ccc(C(=O)Nc2ccc(CN3CCN(C)CC3)c(C(F)(F)F)c2)cc1C#Cc1cnc(N)c2ncccc12 :: 99

Hi there! I need inhibition at 0.5 µM for each item below, if you can.
1. Cc1ccc(C(=O)Nc2ccc(CN3CCN(C)CC3)c(C(F)(F)F)c2)cc1C#Cc1c(N)ncc2ccc(Cl)cc12
2. Cc1cnc(C(=O)Nc2ccc(CN3CCN(C)CC3)c(C(F)(F)F)c2)cc1C#Cc1c(N)ncc2ccc(Cl)cc12

Completion:
1: 97; 2: 75

====

Give IC50 for every item shown.
target.or.test.system: Src (Homo sapiens, UniProt P12931)
Sequence (P12931 whole entry): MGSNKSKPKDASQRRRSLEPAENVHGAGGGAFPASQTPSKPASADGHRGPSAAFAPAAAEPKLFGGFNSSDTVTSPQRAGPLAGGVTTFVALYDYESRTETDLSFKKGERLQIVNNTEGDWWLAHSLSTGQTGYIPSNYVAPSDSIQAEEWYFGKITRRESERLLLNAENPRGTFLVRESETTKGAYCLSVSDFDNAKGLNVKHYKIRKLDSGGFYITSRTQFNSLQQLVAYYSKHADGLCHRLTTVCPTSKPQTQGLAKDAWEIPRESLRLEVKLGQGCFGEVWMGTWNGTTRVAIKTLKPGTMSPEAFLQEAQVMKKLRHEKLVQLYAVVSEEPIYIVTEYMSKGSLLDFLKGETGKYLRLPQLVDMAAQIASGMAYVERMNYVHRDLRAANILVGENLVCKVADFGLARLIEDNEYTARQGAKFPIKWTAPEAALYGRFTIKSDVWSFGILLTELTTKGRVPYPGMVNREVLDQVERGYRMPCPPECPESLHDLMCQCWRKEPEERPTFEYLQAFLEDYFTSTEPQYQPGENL
Give bare numbers, in nM.

1) Cc1ncc(C(=O)Nc2ccc(CN3CCN(C)CC3)c(C(F)(F)F)c2)cc1C#Cc1cnc(N)c2ncccc12 :: 12.2

Prompt: Report IC50 for `Cc1ncc(C(=O)Nc2ccc(CN3CCN(C)CC3)c(C(F)(F)F)c2)cc1C#Cc1c(N)ncc2ccc(F)cc12` please.
Completion: 12.6

====

target.or.test.system: RAF-1 (Homo sapiens, UniProt P04049, Y340D/Y341D)
Sequence (P04049 306-648 Y340D/Y341D limits assumed): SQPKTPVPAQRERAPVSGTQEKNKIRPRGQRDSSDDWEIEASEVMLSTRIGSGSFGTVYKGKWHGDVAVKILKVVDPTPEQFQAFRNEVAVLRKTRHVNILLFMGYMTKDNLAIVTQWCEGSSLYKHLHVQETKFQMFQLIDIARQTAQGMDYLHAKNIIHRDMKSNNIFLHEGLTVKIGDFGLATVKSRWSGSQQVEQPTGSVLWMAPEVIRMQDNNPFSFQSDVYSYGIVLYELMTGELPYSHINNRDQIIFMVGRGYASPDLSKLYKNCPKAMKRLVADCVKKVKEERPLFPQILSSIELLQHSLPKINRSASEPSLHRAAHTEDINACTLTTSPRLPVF
assay.remarks: Cell-free kinase assay, dose-response
test.context: ATP 100 μM; read-out: IC50 RAF-1 (c-Raf)
reported.property: pIC50
Numbers only, as −log10 of the molar value.

Prompt: What value of pIC50 has been recorded for this entry: `Cc1ncc(C(=O)Nc2ccc(CN3CCN(C)CC3)c(C(F)(F)F)c2)cc1C#Cc1c(N)ncc2ccc(F)cc12`
Completion: 7.89

====

What IC50 was measured for each of the following?
System: MV4–11 cells
assay.remarks: Antiproliferative activity (CellTitre-Blue, 72 h)
Type: cell-based, human
test.context: Homo sapiens, MV4-11, 72 h, 72 h incubation, triplicates; read-out: IC50 (mean ±SD, nM) MV4–11
Answers are plain numbers, in nM.

In the examples that follow, each entry is paired with its recorded IC50.
1) Cc1ncc(C(=O)Nc2ccc(CN3CCN(C)CC3)c(C(F)(F)F)c2)cc1C#Cc1c(N)ncc2ccc(F)cc12 [Compound 7] :: 0.5
2) Cc1ncc(C(=O)Nc2ccc(CN3CCN(C)CC3)c(C(F)(F)F)c2)cc1C#Cc1cncc2ncccc12 [Compound 24] :: 0.2
3) Cc1ccc2cnc(N)c(C#Cc3cc(C(=O)Nc4ccc(CN5CCN(C)CC5)c(C(F)(F)F)c4)cnc3C)c2c1 [Compound 13] :: 0.4
4) Cc1ncc(C(=O)Nc2ccc(CN3CCN(C)CC3)c(C(F)(F)F)c2)cc1C#Cc1cnc(N)c2ncccc12 [Compound 20] :: 0.3
5) CC(C)(C)c1cc(NC(=O)Nc2ccc(-c3cn4c(n3)sc3cc(OCCN5CCOCC5)ccc34)cc2)no1 [Quizartinib, reference compound] :: 0.4

Hi, could you look up IC50 for each item in my list?
1. CC1(COc2ccc3c(c2)ncn3-c2ccc3cccc(N4CCC(N)CC4)c3n2)COC1 [Crenolanib, reference compound]
2. Cc1ncc(C(=O)Nc2ccc(CN3CCN(C)CC3)c(C(F)(F)F)c2)cc1C#Cc1c(N)ncc2ccccc12 [Compound 5]

Completion:
3.1
0.4

====

Kindly state IC50 for each of the entries shown.
Tested on: MOLM-14 (ITD, D835Y) cells
assay.remarks: Antiproliferative activity (CellTitre-Blue, 72 h)
Format: cell-based, human
test.context: Homo sapiens, MOLM-14, 72 h, 72 h incubation, triplicates; read-out: IC50 (mean ±SD, nM) MOLM-14 (ITD, D835Y)

Illustrative cases are given below, each with its answer.
1) Cc1ncc(C(=O)Nc2ccc(CN3CCN(C)CC3)c(C(F)(F)F)c2)cc1C#Cc1c(N)ncc2ccc(F)cc12 :: ≤ 15 nM
2) Cc1ccc(C(=O)Nc2ccc(CN3CCN(C)CC3)c(C(F)(F)F)c2)cc1C#Cc1cnc(N)c2ccccc12 :: ≤ 15 nM

# ---- query molecule ----
Prompt: What does the record list as IC50 for `Cc1ccc(C(=O)Nc2ccc(CN3CCN(C)CC3)c(C(F)(F)F)c2)nc1C#Cc1c(N)ncc2ccc(Cl)cc12` ?
Completion: ≤ 15 nM

====

target.or.test.system: FLT3 (Homo sapiens, UniProt P36888)
Construct: purchased Invitrogen PV3182
assay.remarks: Cell-free kinase assay, single dose (Reaction Biology, ADP-Glo)
Format: biochemical
test.context: inhibitor 500 nM; 100 μM ATP; average of duplicate
Description: Cell-free kinase activity assays were performed at Reaction Biology Corporation. […] DMSO was used as control. […] Experiments were performed in duplicates. The concentrations of kinases and substrates used in the assays are indicated on Table S1. Kinase activity was quantified using the ADP-Glo™ Kinase Assay System (Promega, Madison, WI) following the manufacturer's recommendations.
Would you mind telling me the reported inhibition at 0.5 µM of each entry?
Numbers only, in %.

Would you please look over these solved cases?
1) Cc1ccc2cnc(N)c(C#Cc3cc(C(=O)Nc4ccc(CN5CCN(C)CC5)c(C(F)(F)F)c4)ccc3C)c2c1 :: 98
2) Cc1ccc(C(=O)Nc2ccc(CN3CCN(C)CC3)c(C(F)(F)F)c2)cc1C#Cc1nc(Br)cnc1N :: 81
3) CC1(COc2ccc3c(c2)ncn3-c2ccc3cccc(N4CCC(N)CC4)c3n2)COC1 [Crenolanib, reference compound] :: 99
4) Cc1ccc(C(=O)Nc2ccc(CN3CCN(C)CC3)c(C(F)(F)F)c2)cc1C#Cc1cccnc1N :: 96
5) Cc1ncc(C(=O)Nc2ccc(CN3CCN(C)CC3)c(C(F)(F)F)c2)cc1C#Cc1cnc(NC2CC2)c2ncccc12 :: 80
6) COc1ccc2c(N)ncc(C#Cc3cc(C(=O)Nc4ccc(CN5CCN(C)CC5)c(C(F)(F)F)c4)cnc3C)c2c1 :: 98
7) Cc1ncc(C(=O)Nc2ccc(CN3CCN(C)CC3)c(C(F)(F)F)c2)cc1C#Cc1cncc2ncccc12 :: 100
8) Cc1ncc(C(=O)Nc2ccc(CN3CCN(C)CC3)c(C(F)(F)F)c2)cc1C#Cc1cnc(N)c2ccc(F)cc12 :: 98
9) Cc1ccc(C(=O)Nc2ccc(CN3CCN(C)CC3)c(C(F)(F)F)c2)cc1C#Cc1c(N)ncc2ccccc12 :: 93
10) Cc1ccc(C(=O)Nc2ccc(CN3CCN(C)CC3)c(C(F)(F)F)c2)cc1C#Cc1ccc(N)nc1 :: 99

For each entry beneath this line, provide reported inhibition at 0.5 µM.
1. Cc1ccc(C(=O)Nc2ccc(CN3CCN(C)CC3)c(C(F)(F)F)c2)nc1C#Cc1c(N)ncc2ccc(Cl)cc12
2. Cc1ccc(C(=O)Nc2ccc(CN3CCN(C)CC3)c(C(F)(F)F)c2)cc1C#Cc1cncc2ccccc12
3. Cc1ncc(C(=O)Nc2ccc(CN3CCN(C)CC3)c(C(F)(F)F)c2)cc1C#Cc1cnc(N)c2ncccc12
4. Cc1ncc(C(=O)Nc2ccc(CN3CCN(C)CC3)c(C(F)(F)F)c2)cc1C#Cc1c(N)ncc2ccccc12
5. Cc1ccc(C(=O)Nc2ccc(CN3CCN(C)CC3)c(C(F)(F)F)c2)cc1C#Cc1cncc2ncccc12
6. Cc1ccc2cnc(N)c(C#Cc3cc(C(=O)Nc4ccc(CN5CCN(C)CC5)c(C(F)(F)F)c4)cnc3C)c2c1
7. Cc1ncc(C(=O)Nc2ccc(CN3CCN(C)CC3)c(C(F)(F)F)c2)cc1C#Cc1cnc(N)c2ccccc12

Completion:
43
98
97
99
99
100
98
